Read-out: catalase (CAT), CAT (gene 847)
Experiment: LTEA_HepaRG_CAT: Life Technologies and Expression Analysis (LTEA) Assay for catalase (CAT) using HepaRG (AID 2283452)
Conditions: mRNA level, 48 h; actives raise or lower the signal
Active and inactive are the calls of the source. Rule for the calls: active = hit-call score of the fitted dose curve at least 0.9, where 1 is the maximum; inactive = score below 0.9.
Possible outcomes: active, inactive

{"columns": ["SMILES STRUCTURE", "ASSIGNED LABEL"],
 "data": [
  ["CCCC(=O)OCCC(C)C", "inactive"],
  ["c1ccc2ccccc2c1", "inactive"],
  ["Cc1ccc2oc(CN(Cc3ccccc3)C(=O)Nc3c(F)cc(F)cc3F)c(-c3ccc(Cl)cc3)c2c1", "active"],
  ["c1ccc(C[n+]2cccc3ccccc32)cc1", "active"],
  ["Cc1ccc(C(C)C)cc1", "inactive"],
  ["CN(C[C@@H](CC[N+]12CCC(C3CCCCC3)(CC1)CC2)c1ccc(Cl)c(Cl)c1)C(=O)c1cc(C(F)(F)F)cc(C(F)(F)F)c1", "active"],
  ["CCCOC(=O)c1cc(O)c(O)c(O)c1", "inactive"],
  ["C[C@]12CC[C@@H]3c4ccc(O)cc4CC[C@H]3[C@@H]1CCC2=O", "inactive"],
  ["Cc1cccc2ccccc12", "inactive"]
]}

###

Read-out: Matrix Metallopeptidase 1 (MMP1), MMP1 (gene 4312)
Experiment: BSK_BE3C_MMP1: BioMAP Diversity Plus: BE3C Assay for Matrix Metallopeptidase 1 (MMP1) Biomarker Activity (AID 2283024)
Conditions: primary human bronchial epithelial cells; actives raise or lower the signal
Active and inactive are the calls of the source. Rule for the calls: active = hit-call score of the fitted dose curve at least 0.9, where 1 is the maximum; inactive = score below 0.9.

{"columns": ["SMILES STRUCTURE", "outcome"],
 "data": [
  ["Cc1ncc(CO)c(CO)c1O", "inactive"],
  ["Clc1cc(Cl)c2c(c1)N=C1CCCCCN1C2", "inactive"],
  ["O=C1O[C@H]([C@@H](O)CO)C(O)=C1O", "inactive"]
]}

###

Read-out: Pselectin, SELP (gene 6403)
Assay: BSK_4H_Pselectin: BioMAP Diversity Plus: 4H Assay for Pselectin Biomarker Activity (AID 2283026)
Conditions: primary human endothelial cells (HUVEC); actives raise or lower the signal
Activity calls are given as the source filed them. Rule for the calls: active = hit-call score of the fitted dose curve at least 0.9, where 1 is the maximum; inactive = score below 0.9.

{"columns": ["SMILES STRUCTURE", "AC50"],
 "data": [
  ["CCCCCCCCCC(=O)O", "inactive"],
  ["O=c1ccc2ccccc2o1", "inactive"],
  ["Cc1cc(F)ccc1-c1cc(N2CC[C@@H](O)[C@H]2CO)ncc1N(C)C(=O)C(C)(C)c1cc(C(F)(F)F)cc(C(F)(F)F)c1", "7.66 µM (active)"],
  ["CC1=CC(=O)/C(=C(/C)O)C(=O)O1", "inactive"],
  ["CCN(Cc1cccnc1)C(=O)c1cccc(Cl)c1[C@]1(C)C(=O)N(Cc2ccc(OC)cc2OC)c2ccc(Cl)cc21", "4.73 µM (active)"],
  ["CC(C)(O)c1ccc(CNC(=O)c2cccnc2Oc2ccc3nonc3c2)cc1", "inactive"],
  ["CCCOC(=O)c1cc(O)c(O)c(O)c1", "inactive"],
  ["c1ccc2n[nH]nc2c1", "inactive"],
  ["O=C(OCCCCCCOC(=O)c1ccccc1)c1ccccc1", "inactive"]
]}

###

Test: Tanguay_ZF_120hpf_ActivityScore_legacy: (Legacy) Oregon State University Tanguay Lab 120 Hour Post-fertilization zebrafish Assay Score for Activity (AID 2283742)
The source made the active and inactive calls. Rule for the calls: active = hit-call score of the fitted dose curve at least 0.9, where 1 is the maximum; inconclusive = response in the unintended direction; inactive = score below 0.9.
Possible outcomes: YES (active), NO (inactive)

{"columns": ["SMILES STRUCTURE", "ASSIGNED LABEL"],
 "data": [
  ["CC1(C)NC(=O)N(c2ccc([N+](=O)[O-])c(C(F)(F)F)c2)C1=O", "NO"],
  ["CC[C@@H]1C[C@H](N(Cc2cc(C(F)(F)F)cc(C(F)(F)F)c2)C(C)=O)c2cc(C(F)(F)F)ccc2N1C(=O)OC(C)C", "NO"],
  ["O=C1O[C@H]([C@@H](O)CO)C(O)=C1O", "NO"],
  ["CN1C(=O)CC[C@H]1c1cccnc1", "NO"],
  ["O=C=NCCCCCCN=C=O", "NO"],
  ["CCOC(=O)O[C@H](C)OC(=O)c1ccc2c(c1)cc(C(=O)NC1CCN(C(C)C)CC1)n2Cc1cc(-c2ccc(Cl)s2)on1", "YES"],
  ["CCCCCCCCCCCCO", "NO"],
  ["O=c1ccc2ccccc2o1", "NO"],
  ["O=C(Nc1ccc(Cl)cc1)Nc1ccc(Cl)c(Cl)c1", "NO"],
  ["CCO[Si](CCCNC(N)=O)(OCC)OCC", "NO"],
  ["O=CCCCC=O", "NO"],
  ["CCCCCCCCOC(=O)c1cc(O)c(O)c(O)c1", "YES"],
  ["CC(C)(C)c1csc(-c2cc3cc(OCc4ccccc4CC(=O)O)ccc3o2)n1", "YES"],
  ["CN(C[C@@H](CC[N+]12CCC(C3CCCCC3)(CC1)CC2)c1ccc(Cl)c(Cl)c1)C(=O)c1cc(C(F)(F)F)cc(C(F)(F)F)c1", "YES"],
  ["O=C1c2ccccc2C(=O)N1CCc1noc(-c2ccc(CN3CCCCCC3)s2)n1", "NO"],
  ["CCCCCCCCOc1ccc(C(=O)c2ccccc2)c(O)c1", "NO"]
]}

###

Read-out: Monokine induced gamma interferon (MIG), CXCL9 (gene 4283)
Assay: BSK_SAg_MIG: BioMAP Diversity Plus: SAg Assay for Monokine induced gamma interferon (MIG) Biomarker Activity (AID 2283092)
Conditions: primary human HUVEC with PBMC; actives raise or lower the signal
Active and inactive are the calls of the source. How the source made its calls: active means hit-call score of the fitted dose curve at least 0.9, where 1 is the maximum; inactive means score below 0.9.
Possible outcomes: t (active), f (inactive)

{"columns": ["COMPOUND", "ASSIGNED LABEL"],
 "data": [
  ["CCCCCCCC[Si](OCC)(OCC)OCC", "f"],
  ["O=c1[nH]sc2ccccc12", "t"],
  ["CCCC(=O)OCCC(C)C", "f"],
  ["OCCO", "f"],
  ["CCCCOC(=O)CC(CC(=O)OCCCC)(OC(C)=O)C(=O)OCCCC", "f"],
  ["O=CCCCC=O", "f"],
  ["CN1C(=O)CC[C@H]1c1cccnc1", "f"],
  ["CCN(CC)C(=O)c1cc(S(=O)(=O)Cc2ccccc2)c(N2CCC(c3ccccc3)CC2)cc1N(CC)CCN(C)C", "t"],
  ["Oc1ccccc1", "f"],
  ["c1ccc(C[n+]2cccc3ccccc32)cc1", "f"],
  ["Cc1ccc(C(C)C)cc1", "f"],
  ["Clc1ccccc1C(c1ccccc1)(c1ccccc1)n1ccnc1", "t"],
  ["CC[C@H](NC(=O)c1cc(F)ccc1NS(=O)(=O)c1cccc2cccnc12)c1ccccc1", "f"],
  ["CC(C)(C)c1csc(-c2cc3cc(OCc4ccccc4CC(=O)O)ccc3o2)n1", "t"],
  ["CCN(Cc1cccnc1)C(=O)c1cccc(Cl)c1[C@]1(C)C(=O)N(Cc2ccc(OC)cc2OC)c2ccc(Cl)cc21", "f"],
  ["CC(=O)N1CCN(c2ccc(OC[C@H]3CO[C@](Cn4ccnc4)(c4ccc(Cl)cc4Cl)O3)cc2)CC1", "t"],
  ["CC/C(=C(/CC)c1ccc(O)cc1)c1ccc(O)cc1", "t"],
  ["C[C@]12CC[C@@H]3c4ccc(O)cc4CC[C@H]3[C@@H]1CC[C@H]2O", "f"],
  ["CCN(Cc1cccc(S(=O)(=O)O)c1)c1ccc(C(=C2C=CC(=[N+](CC)Cc3cccc(S(=O)(=O)O)c3)C=C2)c2ccccc2S(=O)(=O)[O-])cc1", "f"],
  ["CC[C@@H]1C[C@H](N(Cc2cc(C(F)(F)F)cc(C(F)(F)F)c2)C(C)=O)c2cc(C(F)(F)F)ccc2N1C(=O)OC(C)C", "f"],
  ["CO[C@H]1/C=C/O[C@@]2(C)Oc3c(C)c(O)c4c(O)c(c(/C=N/N5CCN(C)CC5)c(O)c4c3C2=O)NC(=O)/C(C)=C\\C=C\\[C@H](C)[C@H](O)[C@@H](C)[C@@H](O)[C@@H](C)[C@H](OC(C)=O)[C@@H]1C", "f"],
  ["CCCCCCCCCCCC[N+](C)(C)C", "t"],
  ["OC12N=C(c3ccccc3)SC1Cc1cc(Cl)ccc12 (stereo not drawn)", "f"],
  ["CCCCCCCCN(C)CCCCCCCC", "f"],
  ["NCc1cccc(C2CCN(C(=O)c3ccc(C#Cc4ccccc4F)o3)CC2)c1", "t"],
  ["O=C1c2ccccc2C(=O)N1CCc1noc(-c2ccc(CN3CCCCCC3)s2)n1", "f"],
  ["Cc1oc2c(NC(=O)c3c(Cl)cccc3Cl)cccc2c1C(C)(C)O", "f"],
  ["O=C=NCCCCCCN=C=O", "f"],
  ["CC1(C)NC(=O)N(c2ccc([N+](=O)[O-])c(C(F)(F)F)c2)C1=O", "f"],
  ["CC(C)(O)c1ccc(CNC(=O)c2cccnc2Oc2ccc3nonc3c2)cc1", "f"],
  ["CCCCOC(=O)c1ccc(O)cc1", "f"],
  ["CN(C)c1ccc(C(=C2C=CC(=[N+](C)C)C=C2)c2ccc(N(C)C)cc2)cc1", "t"],
  ["CC(O)CC(C)(C)O (stereo not drawn)", "f"]
]}
